Parameter 'readout' = Ki; parameter 'system' = 5-hydroxytryptamine receptor 6 (Homo sapiens, UniProt P50406).
Sequence (P50406 whole entry): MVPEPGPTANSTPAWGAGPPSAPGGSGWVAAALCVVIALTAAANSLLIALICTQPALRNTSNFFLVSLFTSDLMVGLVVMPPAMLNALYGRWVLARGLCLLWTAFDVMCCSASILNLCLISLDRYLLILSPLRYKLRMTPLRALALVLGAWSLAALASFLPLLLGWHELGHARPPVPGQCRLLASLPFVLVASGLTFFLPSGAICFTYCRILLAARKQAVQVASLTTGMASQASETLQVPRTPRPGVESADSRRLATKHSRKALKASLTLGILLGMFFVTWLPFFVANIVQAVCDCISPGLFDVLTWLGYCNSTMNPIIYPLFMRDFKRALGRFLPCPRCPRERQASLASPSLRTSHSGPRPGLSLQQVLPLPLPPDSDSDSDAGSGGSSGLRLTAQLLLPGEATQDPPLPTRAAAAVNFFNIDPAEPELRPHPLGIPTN

Smiles	Ki
COc1cccc2c1ccn2S(=O)(=O)c1ccc(N)cc1	0.0033 µM

INPUT: For `CNc1cccc2c1c1c(n2S(=O)(=O)c2ccc(N)cc2)CCCC1` , what is its reported Ki?
OUTPUT: 0.165 µM
